Target desc: UniProt:P32245
Sequence (P32245 whole entry): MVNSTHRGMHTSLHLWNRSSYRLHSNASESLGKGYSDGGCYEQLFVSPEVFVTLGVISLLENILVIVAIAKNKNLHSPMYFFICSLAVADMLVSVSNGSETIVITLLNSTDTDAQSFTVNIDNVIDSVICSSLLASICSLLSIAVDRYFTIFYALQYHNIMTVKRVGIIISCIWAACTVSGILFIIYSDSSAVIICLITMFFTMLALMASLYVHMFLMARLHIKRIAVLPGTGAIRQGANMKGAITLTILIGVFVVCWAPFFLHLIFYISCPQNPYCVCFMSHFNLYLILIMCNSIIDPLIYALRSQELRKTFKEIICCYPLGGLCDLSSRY
Experiment summary: In vitro binding affinity assay using hMC4R (radioligand competition binding, [125I]-(Nle4, D-Phe7)-α-MSH)
Experimental conditions: geometric mean, read-out: Ki (nM) geometric
Recorded measurements of Ki, one per entry
Response body: numeric value in nM, unit text excluded.

Below are worked cases with known answers.
>>> print(df.to_string())
                                   molecule     target_desc  value_measured
0  COc1cc([C@@H](C)C(=O)N2CC[C@@]3(CCc4cc(-c5ccc(F)cn5)c(C)nc4N3)C2)c(F)cn1 [Example 139]  UniProt:P32245              13
1  COc1cc([C@@H](C)C(=O)N2CC[C@@]3(CCc4cc(-c5ccnc(N6CCOCC6)n5)c(C)nc4N3)C2)c(F)cn1 [Example 196]  UniProt:P32245             8.1

Measured Ki, COc1cc([C@@H](C)C(=O)N2CC[C@@]3(CCc4cc(-c5ccc(C6CC6)nn5)c(C)nc4N3)C2)c(F)cn1 [Example 199] : 15

Measured Ki, COc1cc([C@@H](C)C(=O)N2CC[C@@]3(CCc4cc(-c5nc6n(n5)CCC6(F)F)c(C)nc4N3)C2)c(F)cn1 [Example 147] : 0.62
